Target: Delta-type opioid receptor (Homo sapiens) (UniProt P41143)
Sequence (P41143 whole entry): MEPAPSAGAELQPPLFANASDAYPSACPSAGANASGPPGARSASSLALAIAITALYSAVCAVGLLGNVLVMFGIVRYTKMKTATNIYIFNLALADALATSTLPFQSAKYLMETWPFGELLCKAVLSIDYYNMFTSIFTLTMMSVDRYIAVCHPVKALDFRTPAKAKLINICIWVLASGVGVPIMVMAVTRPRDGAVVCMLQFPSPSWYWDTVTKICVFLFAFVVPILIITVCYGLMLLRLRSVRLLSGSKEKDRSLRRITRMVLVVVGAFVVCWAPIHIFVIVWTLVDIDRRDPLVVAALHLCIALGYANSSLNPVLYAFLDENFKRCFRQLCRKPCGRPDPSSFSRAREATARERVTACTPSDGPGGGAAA
Experiment: Intrinsic activity at human delta opioid receptor expressed in CHO cells at 10 uM by [35S]GTPgammaS binding assay
Format: functional, cell-based
Calls of active or inactive are those of the source. The rule behind the calls is not given here.
readout-kind: Activity

Here is how some compounds turned out for Activity.
{"record-smiles": "CC(C)[C@@H](CN1CCN(c2cccc(O)c2)[C@@H](C)C1)NC(=O)c1ccc(Oc2cccc(Br)c2)cc1", "Activity": "inactive"}
{"record-smiles": "CC(C)[C@@H](CN1CCN(c2cccc(O)c2)[C@@H](C)C1)NC(=O)c1ccc(Oc2ccccc2)cc1", "Activity": "inactive"}
{"record-smiles": "CC(C)[C@@H](CN1CCN(c2cccc(O)c2)[C@@H](C)C1)NC(=O)c1ccc(Oc2cccc(O)c2)cc1", "Activity": "inactive"}
{"record-smiles": "COc1ccccc1Oc1ccc(C(=O)N[C@H](CN2CCN(c3cccc(O)c3)[C@@H](C)C2)C(C)C)cc1", "Activity": "inactive"}
{"record-smiles": "COc1cccc(Oc2ccc(C(=O)N[C@H](CN3CCN(c4cccc(O)c4)[C@@H](C)C3)C(C)C)cc2)c1", "Activity": "inactive"}
{"record-smiles": "COc1cc(C(=O)N[C@H](CN2CCN(c3cccc(O)c3)[C@@H](C)C2)C(C)C)ccc1Oc1cccc(C)c1", "Activity": "inactive"}
{"record-smiles": "CC(C)[C@@H](CN1CCN(c2cccc(O)c2)[C@@H](C)C1)NC(=O)[C@H]1Cc2ccc(O)cc2CN1", "Activity": "inactive"}
{"record-smiles": "CCCCc1ccc(C(=O)N[C@H](CN2CCN(c3cccc(O)c3)[C@@H](C)C2)C(C)C)cc1", "Activity": "inactive"}

Write down the reported Activity of CC(C)[C@@H](CN1CCN(c2cccc(O)c2)[C@@H](C)C1)NC(=O)c1ccc(Oc2ccccc2O)cc1 , test system: Delta-type opioid receptor (Homo sapiens) (UniProt P41143).
inactive

Write down the reported Activity of CC(C)[C@@H](CN1CCN(c2cccc(O)c2)[C@@H](C)C1)NC(=O)c1ccc(Oc2ccccc2)nc1 , test system: Delta-type opioid receptor (Homo sapiens) (UniProt P41143).
inactive

Write down the reported Activity of CC(C)[C@@H](CN1CCN(c2cccc(O)c2)[C@@H](C)C1)NC(=O)c1ccc(-c2ccccc2)cc1 , test system: Delta-type opioid receptor (Homo sapiens) (UniProt P41143).
inactive

Write down the reported Activity of Cc1cccc(Oc2ccc(C(=O)N[C@H](CN3CCN(c4cccc(O)c4)[C@@H](C)C3)C(C)C)cc2O)c1 , test system: Delta-type opioid receptor (Homo sapiens) (UniProt P41143).
inactive

Write down the reported Activity of CC(C)[C@@H](CN1CCN(c2cccc(O)c2)[C@@H](C)C1)NC(=O)c1ccc(Oc2ccccc2F)cc1 , test system: Delta-type opioid receptor (Homo sapiens) (UniProt P41143).
inactive

Write down the reported Activity of CC(C)[C@@H](CN1CCN(c2cccc(O)c2)[C@@H](C)C1)NC(=O)c1ccc(Oc2ccc(O)cc2)cc1 , test system: Delta-type opioid receptor (Homo sapiens) (UniProt P41143).
inactive

Write down the reported Activity of CC(C)[C@@H](CN1CCN(c2cccc(O)c2)[C@@H](C)C1)NC(=O)c1ccc(Oc2ccccc2)cn1 , test system: Delta-type opioid receptor (Homo sapiens) (UniProt P41143).
inactive

Write down the reported Activity of Cc1cccc(Oc2ccc(C(=O)N[C@H](CN3CCN(c4cccc(O)c4)[C@@H](C)C3)C(C)C)cc2Cl)c1 , test system: Delta-type opioid receptor (Homo sapiens) (UniProt P41143).
inactive
